Readings of Ki for the listed molecules
tgt: HCV NS3/NS4a serine protease (Hepatitis C virus genotype 1b)
Construct: amino terminus of the NS3 protease domain (amino acids 3-181) with a tetrapeptide linker; made in house; host or cells: E. coli
Sequence (P26663 1013-1207, looked up, natural form): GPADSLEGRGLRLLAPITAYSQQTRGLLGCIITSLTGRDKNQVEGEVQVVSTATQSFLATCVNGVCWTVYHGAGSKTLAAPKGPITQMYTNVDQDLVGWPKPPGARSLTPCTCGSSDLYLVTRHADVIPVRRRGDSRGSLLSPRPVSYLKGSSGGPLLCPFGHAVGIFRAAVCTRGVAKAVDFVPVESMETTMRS
experiment.description: Spectrophotometric assay for HCV protease inhibitory activity (chromogenic ester substrates)
Type: biochemical, hepatitis C virus (strain 1b)
condition.context: Ki, Table 3; rating; single chain NS4A21-32-GSGS-NS3 3-181 protease, 30° C., pH 6.5

Observe how each entry below is paired with its result.
molecule	tgt	result
CN(C[C@@H](NC(=O)N[C@H](C(=O)N1C[C@H]2[C@@H]([C@H]1C(=O)N[C@@H](CC(F)F)C(=O)NCCc1ccccn1)C2(C)C)C(C)(C)C)C(C)(C)C)S(C)(=O)=O	HCV NS3/NS4a serine protease (Hepatitis C virus genotype 1b)	100 to 500 nM
CN(C[C@@H](NC(=O)N[C@H](C(=O)N1C[C@H]2[C@@H]([C@H]1C(=O)N[C@@H](CC(F)F)C(=O)NCCc1ccc(F)cc1)C2(C)C)C(C)(C)C)C(C)(C)C)S(C)(=O)=O	HCV NS3/NS4a serine protease (Hepatitis C virus genotype 1b)	< 100 nM
Cc1ccccc1CCNC(=O)[C@H](CC(F)F)NC(=O)[C@@H]1[C@@H]2[C@H](CN1C(=O)[C@@H](NC(=O)N[C@H](CN(C)S(C)(=O)=O)C(C)(C)C)C(C)(C)C)C2(C)C	HCV NS3/NS4a serine protease (Hepatitis C virus genotype 1b)	< 100 nM
CN(C[C@@H](NC(=O)N[C@H](C(=O)N1C[C@H]2[C@@H]([C@H]1C(=O)N[C@@H](CC(F)F)C(=O)NCCCn1ccnc1)C2(C)C)C(C)(C)C)C(C)(C)C)S(C)(=O)=O	HCV NS3/NS4a serine protease (Hepatitis C virus genotype 1b)	> 500 nM
CC(CCc1ccccc1)NC(=O)[C@H](CC(F)F)NC(=O)[C@@H]1[C@@H]2[C@H](CN1C(=O)[C@@H](NC(=O)N[C@H](CN(C)S(C)(=O)=O)C(C)(C)C)C(C)(C)C)C2(C)C (stereo partly shown)	HCV NS3/NS4a serine protease (Hepatitis C virus genotype 1b)	> 500 nM

Looking up CN(C[C@@H](NC(=O)N[C@H](C(=O)N1C[C@H]2[C@@H]([C@H]1C(=O)N[C@@H](CC(F)F)C(=O)NCC1CC1)C2(C)C)C(C)(C)C)C(C)(C)C)S(C)(=O)=O , I found its Ki recorded as > 500 nM

Looking up CC(C)CNC(=O)[C@H](CC(F)F)NC(=O)[C@@H]1[C@@H]2[C@H](CN1C(=O)[C@@H](NC(=O)N[C@H](CN(C)S(C)(=O)=O)C(C)(C)C)C(C)(C)C)C2(C)C , I found its Ki recorded as > 500 nM

Looking up CN(C[C@@H](NC(=O)N[C@H](C(=O)N1C[C@H]2[C@@H]([C@H]1C(=O)N[C@@H](CC(F)F)C(=O)NCCc1ccccc1F)C2(C)C)C(C)(C)C)C(C)(C)C)S(C)(=O)=O , I found its Ki recorded as < 100 nM

Looking up CN(CCc1ccccn1)C(=O)[C@H](CC(F)F)NC(=O)[C@@H]1[C@@H]2[C@H](CN1C(=O)[C@@H](NC(=O)N[C@H](CN(C)S(C)(=O)=O)C(C)(C)C)C(C)(C)C)C2(C)C , I found its Ki recorded as > 500 nM

Looking up CN(C[C@@H](NC(=O)N[C@H](C(=O)N1C[C@H]2[C@@H]([C@H]1C(=O)N[C@@H](CC(F)F)C(=O)NCCc1ccc(O)cc1)C2(C)C)C(C)(C)C)C(C)(C)C)S(C)(=O)=O , I found its Ki recorded as < 100 nM
